Conditions used: in ethylene glycol, 298.15 K

# Smiles entry, solubility (mole fraction)
measured = [
    ("Nc1cnc(Cl)cn1", 0.000747),
]

====

Conditions used: in n-propanol, 323.15 K
Parameter measured: solubility (mole fraction)

# Smiles entry, Numeric value
data = [
    ("Nc1cnc(Cl)cn1", 0.00383),
]

====

Conditions used: in water, 278.15 K

# Smiles entry, solubility (mole fraction)
rows = [
    ("Nc1cnc(Cl)cn1", "3.69e-05"),
]

====

Conditions used: in methanol, 308.15 K

# Smiles entry, solubility (mole fraction)
records = [
    ("Nc1cnc(Cl)cn1", 0.0127),
]

====

Conditions used: in ethylene glycol, 318.15 K
Parameter measured: solubility (mole fraction)

# Smiles entry, Result
records = [
    ("Nc1cnc(Cl)cn1", 0.00136),
]

====

Conditions used: in water, 288.15 K
Parameter measured: solubility (mole fraction)

# Smiles entry, Parameter measured, Result
measured = [
    ("Nc1cnc(Cl)cn1", "solubility (mole fraction)", "6.03e-05"),
]

====

Conditions used: in methanol, 288.15 K

# Smiles entry, solubility (mole fraction)
records = [
    ("Nc1cnc(Cl)cn1", 0.00573),
]

====

Conditions used: in n-propanol, 293.15 K
Parameter measured: solubility (mole fraction)

# Smiles entry, Numeric value
data = [
    ("Nc1cnc(Cl)cn1", 0.00152),
]

====

Conditions used: in ethanol, 303.15 K

# Smiles entry, solubility (mole fraction)
data = [
    ("Nc1cnc(Cl)cn1", 0.00692),
]

====

Conditions used: in methanol, 293.15 K

# Smiles entry, solubility (mole fraction)
rows = [
    ("Nc1cnc(Cl)cn1", 0.0073),
]

====

Conditions used: in ethanol, 283.15 K

# Smiles entry, solubility (mole fraction)
data = [
    ("Nc1cnc(Cl)cn1", 0.00302),
]

====

Conditions used: in n-propanol, 283.15 K

# Smiles entry, solubility (mole fraction)
measured = [
    ("Nc1cnc(Cl)cn1", 0.001),
]

====

Conditions used: in ethanol, 288.15 K
Parameter measured: solubility (mole fraction)

# Smiles entry, Parameter measured, Numeric value
data = [
    ("Nc1cnc(Cl)cn1", "solubility (mole fraction)", 0.00388),
]

====

Conditions used: in n-propanol, 308.15 K

# Smiles entry, solubility (mole fraction)
rows = [
    ("Nc1cnc(Cl)cn1", 0.00252),
]

====

Conditions used: in water, 293.15 K

# Smiles entry, solubility (mole fraction)
records = [
    ("Nc1cnc(Cl)cn1", "7.35e-05"),
]

====

Conditions used: in water, 323.15 K

# Smiles entry, solubility (mole fraction)
records = [
    ("Nc1cnc(Cl)cn1", 0.000182),
]

====

Conditions used: in ethanol, 318.15 K

# Smiles entry, solubility (mole fraction)
rows = [
    ("Nc1cnc(Cl)cn1", 0.0111),
]

====

Conditions used: in water, 308.15 K
Parameter measured: solubility (mole fraction)

# Smiles entry, Numeric value
rows = [
    ("Nc1cnc(Cl)cn1", 0.000123),
]

====

Conditions used: in methanol, 318.15 K
Parameter measured: solubility (mole fraction)

# Smiles entry, Numeric value
data = [
    ("Nc1cnc(Cl)cn1", 0.0173),
]

====

Conditions used: in methanol, 298.15 K
Parameter measured: solubility (mole fraction)

# Smiles entry, Numeric value
records = [
    ("Nc1cnc(Cl)cn1", 0.00915),
]
